Test: AUC in beagle dog plasma at 0.19 mg/kg, iv and 0.19 mg/kg, po by LC-MS/MS method
Type: ADME, organism-based, Canis lupus familiaris
readout label: AUC (µM·h)
Response body: numeric value in µM·h, unit text excluded.

The compound listed as COC(=O)Nc1ccc(-c2cc([C@H](Cc3ccccc3)NC(=O)/C=C/c3cc(Cl)ccc3-n3cnnn3)ccn2)cc1 has a reported AUC of 0.28

----------
Assay: Half life in beagle dog plasma at 0.2 mg/kg, iv and 0.29 mg/kg, po by LC-MS/MS method
Type: ADME, organism-based, Canis lupus familiaris
readout label: half-life (h)
Response body: numeric value in h, unit text excluded.

The compound listed as COC(=O)Nc1ccc(-c2cc([C@H](Cc3ccccc3)NC(=O)[C@H]3CC[C@H](CN)CC3)ncn2)cc1 has a reported half-life of 3.2

----------
Experiment: Clearance in beagle dog plasma at 0.28 mg/kg, iv and 0.62 mg/kg, po administered in cassette format by LC-MS/MS method
Type: ADME, organism-based, Canis lupus familiaris
readout label: clearance

The molecule listed as COC(=O)Nc1ccc(-c2ccnc([C@H](Cc3ccccc3)NC(=O)[C@H]3CC[C@H](CN)CC3)c2)cc1 has a reported clearance of 0.9 mL/min/kg

----------
Assay: Clearance in beagle dog plasma at 0.19 mg/kg, iv and 0.19 mg/kg, po administered in cassette format by LC-MS/MS method
Format: ADME, organism-based, Canis lupus familiaris
readout label: clearance
Report field: quantity (unit follows the number).

The compound listed as COC(=O)Nc1ccc(-c2cc([C@H](Cc3ccccc3)NC(=O)/C=C/c3cc(Cl)ccc3-n3cnnn3)ccn2)cc1 has a reported clearance of 5.6 mL/min/kg

----------
Assay: AUC in beagle dog plasma at 0.4 mg/kg, iv and 0.8 mg/kg, po by LC-MS/MS method
Format: ADME, organism-based, Canis lupus familiaris
readout label: AUC (µM·h)
Response body: numeric value in µM·h, unit text excluded.

The compound listed as COC(=O)Nc1ccc(-c2cc([C@H](Cc3ccccc3)NC(=O)[C@H]3CC[C@H](CN)CC3)[nH]c(=O)c2)cc1 has a reported AUC of 0.01

----------
Quick list: clearance per entry.
Test system: Canis familiaris
Test: Clearance in beagle dog plasma at 0.2 mg/kg, iv and 0.2 mg/kg, po administered in cassette format by LC-MS/MS method
Format: ADME, organism-based, Canis lupus familiaris
Conditions: in vivo
Response body: numeric value in mL/min/kg, unit text excluded.

structure notation: COC(=O)Nc1ccc(-c2c[nH]c([C@H](Cc3ccccc3)NC(=O)/C=C/c3cc(Cl)ccc3-n3cnnn3)n2)cc1
clearance [mL/min/kg]: 21

Attention now turns to another entry.
The molecule listed as COC(=O)Nc1ccc(-c2cc([C@H](Cc3ccccc3)NC(=O)/C=C/c3cc(Cl)ccc3-n3cnnn3)[nH]c(=O)c2)cc1 has a reported clearance of 30

----------
Experiment: Volume of distribution at steady state in beagle dog plasma at 0.2 mg/kg, iv and 0.2 mg/kg, po by LC-MS/MS method
Format: ADME, organism-based, Canis lupus familiaris
Details: beagle, plasma, read-out: Vdss
readout label: Vd (L/kg)
Response body: numeric value in L/kg, unit text excluded.

The compound listed as COC(=O)Nc1ccc(-c2cc([C@H](Cc3ccccc3)NC(=O)/C=C/c3cc(Cl)ccc3-n3cnnn3)ncn2)cc1 has a reported Vd of 4
